Assay: qHTS Assay for Lipid Storage Modulators in Drosophila S3 Cells
Settings: BODIPY lipid droplet fluorescence, 18-24 h, cells fed with added oleic acid; series mostly up to 46.1 µM
The campaign covered roughly 320,000 compounds. About 2,100 (0.66%) were called active. Inconclusive results (about 53%) are left out. The call rests on the fitted dose curve; in most records, active means well fitted inhibition curve with a large enough effect in the signal ratio, with a control signal flat (not every such curve was filed as active); inconclusive means small, poorly fitted or top-dose-only effect, or effect the other way, or a change in a side signal; inactive means flat fitted curve, though single readings scatter; the % refers to the signal ratio. Many of the other results were omitted from the sample, so actives are more common in it than they were.
Can you answer with just one of these options? active, inactive

Sample answers from the record:
MOLECULE: COc1ccc(-c2noc(C3CCCN(C(=O)c4ccc(C)cc4)C3)n2)cc1 (stereo unspecified)
GROUP: inactive
--
MOLECULE: CC1(C)CC(=O)C2=C(C1)OC(N)=C(C#N)C2c1ccsc1 (stereo unspecified)
GROUP: inactive
--
MOLECULE: Cc1ccn(CC(=O)N2CCCC(N3CCN(c4cccc(Cl)c4)CC3)C2)n1 (stereo unspecified)
GROUP: inactive

Call for entry CC(C)/C(=N/Nc1ccccc1[N+](=O)[O-])c1ccccc1 : active

Call for entry COc1cc(NC(=O)c2ccc([N+](=O)[O-])cc2)c(OC)cc1NC(=O)CC(C)C : inactive

Call for entry COc1ccc(N2C(=O)CC(N(CCc3ccc(OC)c(OC)c3)C(=S)Nc3ccccc3)C2=O)cc1 (stereo unspecified) : inactive

Call for entry COc1ccc(CCNC(=O)Cn2cnc3c(nnn3Cc3ccc(C)cc3)c2=O)cc1OC : inactive

Call for entry CCOC(=O)c1cc(C)n(-n2cnnc2)c1C : active

Call for entry Cc1ccc(-c2noc(C3CCCN(C(=O)c4ccccc4Br)C3)n2)cc1 (stereo unspecified) : active

Call for entry CCOC(=O)c1cc(C)n(-c2ccccc2)c1C : inactive

Call for entry C=CCn1c(SCc2nc3ccccc3nc2C)nnc1-c1ccoc1C : inactive

---

Assay: qHTS Assay for Lipid Storage Modulators in Drosophila S3 Cells
Conditions: BODIPY lipid droplet fluorescence, 18-24 h, cells fed with added oleic acid; series mostly up to 46.1 µM
From the text: NIH Molecular Libraries Probe Production Centers Network [MLPCN] NIH Chemical Genomics Center [NCGC] […] Triacsin C (Sigma-Aldrich T-4540), an inhibitor of long-chain fatty acyl CoA synthetase that blocks synthesis of triglycerides, was used as a positive control for lipid under-storage. […] Fluorescence was detected by excitation of the fluorophores with a 488-nm laser on an Acumen Explorer (TTP Lab Tech). […] Cells were detected using channel 3 (575-640 nm) with 5-um width and 100-um depth filters. […]
Screen size: about 320,000 compounds; about 2,100 (0.66%) were called active. Roughly 53% stayed inconclusive and do not appear here. Calls come from the whole dose curve; as a rule, active = well fitted inhibition curve with a large enough effect in the signal ratio, with a control signal flat (not every such curve was filed as active); inconclusive = small, poorly fitted or top-dose-only effect, or effect the other way, or a change in a side signal; inactive = flat fitted curve, though single readings scatter; the % refers to the signal ratio. The list comes from a sample in which actives are over-represented; it also holds close analogues and randomly drawn compounds.
Can you answer with just one of these options? YES (active), NO (inactive)

MOLECULE: O=c1cc(CO)oc(C(Nc2ccccn2)c2ccccc2Cl)c1O (stereo not drawn)
GROUP: NO
//
MOLECULE: CCC(=O)N/N=C/c1ccc(-c2ccc([N+](=O)[O-])cc2)o1
GROUP: NO
//
MOLECULE: CCN(CCNC(=O)C1CCN(S(=O)(=O)c2c(C)noc2C)CC1)c1ccccc1
GROUP: NO
//
MOLECULE: CCOc1ccc(N(CC(=O)NCCSCc2ccccc2)S(C)(=O)=O)cc1
GROUP: NO

Call for entry Cc1cccc(NC(=O)Cn2c(=O)n(CCC(=O)NC3CCCC3)c(=O)c3ccccc32)c1 : NO
